# Experimental protocol: clinical
# Measurement parameters: human, in vivo, iv

- Smiles representation: "CCC/N=C1\\S/C(=C\\c2ccc(OC[C@H](O)CO)c(Cl)c2)C(=O)N1c1ccccc1C"
  clearance: "63.3 mL/min"

====

# Experimental protocol: in vitro
# Format: in vitro ADME
# Measurement parameters: human, plasma
Value type: fraction unbound

- Smiles representation: "CCC/N=C1\\S/C(=C\\c2ccc(OC[C@H](O)CO)c(Cl)c2)C(=O)N1c1ccccc1C"
  Value type: "fraction unbound"
  Value observed: "< 0.01"

====

# Experimental protocol: clinical
# Measurement parameters: human, in vivo, po, 10 mg

- Smiles representation: "CCC/N=C1\\S/C(=C\\c2ccc(OC[C@H](O)CO)c(Cl)c2)C(=O)N1c1ccccc1C"
  Unit string: "%"
  bioavailability: 84

====

# Experimental protocol: Oral toxicity studies of 13 to 52 weeks in dogs, coronary arterial lesions
# Format: in vivo, dog
# Measurement parameters: dog, in vivo; 13 to 52 weeks oral

- Molecule: "CCC/N=C1\\S/C(=C\\c2ccc(OC[C@H](O)CO)c(Cl)c2)C(=O)N1c1ccccc1C [Ponesimod]"
  Unit string: "mg/kg/day"
  NOAEL: 2
